TEST SYSTEM: LHRH (Rattus norvegicus, UniProt P30969)
Construct: endogenous in cells; host or cells: rat pituitary cells (own knowledge of the cited Haviv 1989 method)
ASSAY PROCEDURE: in vitro test for LHRH antagonist potency (pA2)
Type: cell-based
CONDITIONS USED: negative logarithm of the antagonist concentration required to shift the response curve produced by the agonist leuprolide to two-fold higher concentration
Non-standard residues stand in square brackets, D forms with d. Residues, ends and D or L forms follow the SMILES beside them. *: point of attachment. dPhe(4-Cl) = N[C@H](Cc1ccc(Cl)cc1)C(=O)O; d2Nal = N[C@H](Cc1ccc2ccccc2c1)C(=O)O; Lys(iPr) = CC(C)NCCCC[C@H](N)C(=O)O; NMeY = CN[C@@H](Cc1ccc(O)cc1)C(=O)O; Thiophene2carbonyl = O=C(c1cccs1)*; dCit = NC(=O)NCCC[C@@H](N)C(=O)O; d3Pal = N[C@H](Cc1cccnc1)C(=O)O; Isonicotinoyl = O=C(c1ccncc1)*; Nicotinoyl = O=C(c1cccnc1)*
MEASURED PROPERTY: Kb

Req: Fill in the recorded Kb for this molecule, with LHRH (Rattus norvegicus, UniProt P30969) as test system: CC(C)C[C@@H](NC(=O)[C@@H](CCCCNC(=O)c1cccnc1)NC(=O)[C@H](Cc1ccc(O)cc1)N(C)C(=O)[C@H](CO)NC(=O)[C@@H](Cc1cccnc1)NC(=O)[C@@H](Cc1ccc(Cl)cc1)NC(=O)[C@@H](Cc1ccc2ccccc2c1)NC(=O)CNC(=O)[C@@H]1CCCO1)C(=O)N[C@@H](CCCCNC(C)C)C(=O)N1CCC[C@H]1C(=O)N[C@H](C)C(N)=O
Resp: 0.269 nM

Req: Again, but for CC(C)C[C@H](NC(=O)[C@@H](CCCCNC(=O)c1cccnc1)NC(=O)[C@H](Cc1ccc(O)cc1)N(C)C(=O)[C@H](CO)NC(=O)[C@@H](Cc1cccnc1)NC(=O)[C@@H](Cc1ccc(Cl)cc1)NC(=O)[C@@H](Cc1ccc2ccccc2c1)NC(=O)c1cccs1)C(=O)N[C@@H](CCCCNC(C)C)C(=O)N1CCC[C@H]1C(=O)N[C@H](C)C(N)=O [Example 72c] (Thiophene2carbonyl-[d2Nal][dPhe(4-Cl)][d3Pal]S[NMeY][dK](Nicotinoyl)L[Lys(iPr)]P[dA]-NH2)
Resp: 0.02 nM

# input for lookup
Req: Fill in the recorded Kb for this molecule, with LHRH (Rattus norvegicus, UniProt P30969) as test system: CC(C)C[C@H](NC(=O)[C@@H](CCCNC(N)=O)NC(=O)[C@H](Cc1ccc(O)cc1)N(C)C(=O)[C@H](CO)NC(=O)[C@@H](Cc1cccnc1)NC(=O)[C@@H](Cc1ccc(Cl)cc1)NC(=O)[C@@H](Cc1ccc2ccccc2c1)NC(=O)c1ccncc1)C(=O)N[C@@H](CCCNC(=N)N)C(=O)N1CCC[C@H]1C(=O)N[C@H](C)C(N)=O [Example 78e] (Isonicotinoyl-[d2Nal][dPhe(4-Cl)][d3Pal]S[NMeY][dCit]LRP[dA]-NH2)
Resp: 0.0162 nM

----------
TEST SYSTEM: LHRH (Rattus norvegicus)
Construct: endogenous in cells; host or cells: rat pituitary cells (own knowledge of the cited Haviv 1989 method)
ASSAY PROCEDURE: in vitro test for LHRH antagonist potency (pA2)
Format: cell-based
CONDITIONS USED: negative logarithm of the antagonist concentration required to shift the response curve produced by the agonist leuprolide to two-fold higher concentration
Non-standard residues stand in square brackets, D forms with d. Residues, ends and D or L forms follow the SMILES beside them. *: point of attachment. NMePhe(4-NO2) = CN[C@@H](Cc1ccc([N+](=O)[O-])cc1)C(=O)O; Shikimoyl = O=C(C1=C[C@@H](O)[C@@H](O)[C@H](O)C1)*; dPhe(4-Cl) = N[C@H](Cc1ccc(Cl)cc1)C(=O)O; d2Nal = N[C@H](Cc1ccc2ccccc2c1)C(=O)O; NMeY = CN[C@@H](Cc1ccc(O)cc1)C(=O)O; hArg = N=C(N)NCCCC[C@H](N)C(=O)O; d3Pal = N[C@H](Cc1cccnc1)C(=O)O; Nicotinoyl = O=C(c1cccnc1)*; βAla = NCCC(=O)O
# Kb annotations
Number in nM, nothing else.

Worked examples follow.
Req: Fill in the recorded Kb for this molecule, with LHRH (Rattus norvegicus) as test system: CC(C)C[C@H](NC(=O)[C@@H](CCCCNC(=O)c1cccnc1)NC(=O)[C@H](Cc1ccc(O)cc1)NC(=O)[C@H](CO)NC(=O)[C@@H](Cc1cccnc1)NC(=O)[C@@H](Cc1ccc(Cl)cc1)NC(=O)[C@@H](Cc1ccc2ccccc2c1)NC(=O)CNC(=O)C1CCCO1)C(=O)N[C@@H](CCCCNC(C)C)C(=O)N1CCC[C@H]1C(=O)N[C@H](C)C(N)=O (mixture of isomers)
Resp: 0.00219

Req: Again, but for CC(C)C[C@H](NC(=O)[C@@H](CCCCNC(=O)C1=C[C@@H](O)[C@@H](O)[C@H](O)C1)NC(=O)[C@H](Cc1ccc(O)cc1)N(C)C(=O)[C@H](CO)NC(=O)[C@@H](Cc1cccnc1)NC(=O)[C@@H](Cc1ccc(Cl)cc1)NC(=O)[C@@H](Cc1ccc2ccccc2c1)NC(=O)CNC(=O)C1=C[C@@H](O)[C@@H](O)[C@H](O)C1)C(=O)N[C@@H](CCCNC(=N)N)C(=O)N1CCC[C@H]1C(=O)N[C@H](C)C(N)=O [Example 14l] (Shikimoyl-G[d2Nal][dPhe(4-Cl)][d3Pal]S[NMeY][dK](Shikimoyl)LRP[dA]-NH2)
Resp: 0.02

***
Req: Fill in the recorded Kb for this molecule, with LHRH (Rattus norvegicus) as test system: CC(C)C[C@H](NC(=O)[C@@H](CCCCNC(=O)C1=C[C@@H](O)[C@@H](O)[C@H](O)C1)NC(=O)[C@H](Cc1ccc([N+](=O)[O-])cc1)N(C)C(=O)[C@H](CO)NC(=O)[C@@H](Cc1cccnc1)NC(=O)[C@@H](Cc1ccc(Cl)cc1)NC(=O)[C@@H](Cc1ccc2ccccc2c1)NC(=O)CNC(=O)c1cccnc1)C(=O)N[C@@H](CCCCNC(=N)N)C(=O)N1CCC[C@H]1C(=O)N[C@H](C)C(N)=O [Example 26b] (Nicotinoyl-G[d2Nal][dPhe(4-Cl)][d3Pal]S[NMePhe(4-NO2)][dK](Shikimoyl)L[hArg]P[dA]-NH2)
Resp: 0.0437

Req: Again, but for CC(C)C[C@H](NC(=O)[C@@H](CCCCNC(=O)C1=C[C@@H](O)[C@@H](O)[C@H](O)C1)NC(=O)[C@H](Cc1ccc(O)cc1)N(C)C(=O)[C@H](CO)NC(=O)[C@@H](Cc1cccnc1)NC(=O)[C@@H](Cc1ccc(Cl)cc1)NC(=O)[C@@H](Cc1ccc2ccccc2c1)NC(=O)CCNC(=O)c1cccnc1)C(=O)N[C@@H](CCCCNC(=N)N)C(=O)N1CCC[C@H]1C(=O)N[C@H](C)C(N)=O [Example 28] ({Nicotinoyl-βAla}-[d2Nal][dPhe(4-Cl)][d3Pal]S[NMeY][dK](Shikimoyl)L[hArg]P[dA]-NH2)
Resp: 0.00977

----------
TEST SYSTEM: LHRH (Rattus norvegicus, UniProt P30969)
Construct: endogenous in cells; host or cells: rat pituitary cells (own knowledge of the cited Haviv 1989 method)
Sequence (P30969 1-327): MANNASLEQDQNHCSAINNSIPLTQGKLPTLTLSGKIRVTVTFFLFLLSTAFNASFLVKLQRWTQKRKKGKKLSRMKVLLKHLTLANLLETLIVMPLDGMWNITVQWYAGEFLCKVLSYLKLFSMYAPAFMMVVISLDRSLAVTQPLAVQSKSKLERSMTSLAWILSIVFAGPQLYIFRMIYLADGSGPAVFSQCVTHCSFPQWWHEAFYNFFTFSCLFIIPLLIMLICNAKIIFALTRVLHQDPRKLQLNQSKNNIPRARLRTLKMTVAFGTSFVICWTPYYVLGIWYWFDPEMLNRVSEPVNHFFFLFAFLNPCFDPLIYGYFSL
ASSAY PROCEDURE: in vitro test for LHRH antagonist potency (pA2)
Format: cell-based
CONDITIONS USED: negative logarithm of the antagonist concentration required to shift the response curve produced by the agonist leuprolide to two-fold higher concentration
Non-standard residues stand in square brackets, D forms with d. Residues, ends and D or L forms follow the SMILES beside them. *: point of attachment. dPhe(4-Cl) = N[C@H](Cc1ccc(Cl)cc1)C(=O)O; d2Nal = N[C@H](Cc1ccc2ccccc2c1)C(=O)O; Lys(iPr) = CC(C)NCCCC[C@H](N)C(=O)O; NMeY = CN[C@@H](Cc1ccc(O)cc1)C(=O)O; d3Pal = N[C@H](Cc1cccnc1)C(=O)O; Nicotinoyl = O=C(c1cccnc1)*; X1 = O=C([C@@H]1CCCO1)*; βAla = NCCC(=O)O
MEASURED PROPERTY: Kb (nM)
Number in nM, nothing else.

Req: // query Kb value for entry CC(C)C[C@H](NC(=O)[C@@H](CCCCNC(=O)c1cccnc1)NC(=O)[C@H](Cc1ccc(O)cc1)N(C)C(=O)[C@H](CO)NC(=O)[C@@H](Cc1cccnc1)NC(=O)[C@@H](Cc1ccc(Cl)cc1)NC(=O)[C@@H](Cc1ccc2ccccc2c1)NC(=O)CCNC(=O)[C@@H]1CCCO1)C(=O)N[C@@H](CCCCNC(C)C)C(=O)N1CCC[C@H]1C(=O)N[C@H](C)C(N)=O [Example 96] ({X1-βAla}-[d2Nal][dPhe(4-Cl)][d3Pal]S[NMeY][dK](Nicotinoyl)L[Lys(iPr)]P[dA]-NH2)
Resp: 0.0275
